These entries and their values trace back to patent US4962109A.

tested on: Musca domestica (houseflies - adults); assay: Contact test on houseflies - adults (MD), Cotton wool/sugar, mortality; format: in vivo; settings: 72 h, 500 ppm, contact, 3 days, read-out: MD grading of mortality
What mortality at 500 ppm was measured for each of the following?

Previously resolved entries follow.
>>> observed_measurement("CCC(C)(C)c1ncc(C(C(=O)OCc2c(F)c(F)c(COC)c(F)c2F)C(C)(C)C)cn1 (racemic) [Compound 61]")
"80 to 100%"
>>> observed_measurement("CC(C)(C)c1ncc(C(C(=O)OCc2c(F)c(F)c(CN3CCCCC3)c(F)c2F)C(C)(C)C)cn1 (racemic) [Compound 177]")
"< 50%"
>>> observed_measurement("CC(C)(C)c1ncc(C(C(=O)OCc2cccc(Oc3ccc(Cl)cc3)c2)C(C)(C)C)cn1 (racemic) [Compound 180]")
"80 to 100%"

Please give mortality at 500 ppm, item by item, for the list that follows.
1. CCOCc1c(F)c(F)c(COC(=O)C(c2cnc(C(C)(C)C)nc2)C(C)(C)C)c(F)c1F (racemic) [Compound 186]
2. CC(C)(C)C(C(=O)OCc1ccc(F)c(Oc2ccccc2)c1)c1cnc(-c2ccccc2Cl)nc1 (racemic) [Compound 209]
3. CC(C)(C)c1ncc(C(C(=O)OCc2c(F)c(F)c(CC3CC3(Cl)Cl)c(F)c2F)C(C)(C)C)cn1 (racemic) [Compound 216]
4. CC(C)(C)C(C(=O)OCc1ccc(F)c(Oc2ccccc2)c1)c1cnc(C2CC2)nc1 (racemic) [Compound 201]

Marked response:
["< 50%", "< 50%", "< 50%", "80 to 100%"]
